- system_under_test: UniProt Q8TE49
- Sequence (Q8TE49 whole entry, the tested form may be a part): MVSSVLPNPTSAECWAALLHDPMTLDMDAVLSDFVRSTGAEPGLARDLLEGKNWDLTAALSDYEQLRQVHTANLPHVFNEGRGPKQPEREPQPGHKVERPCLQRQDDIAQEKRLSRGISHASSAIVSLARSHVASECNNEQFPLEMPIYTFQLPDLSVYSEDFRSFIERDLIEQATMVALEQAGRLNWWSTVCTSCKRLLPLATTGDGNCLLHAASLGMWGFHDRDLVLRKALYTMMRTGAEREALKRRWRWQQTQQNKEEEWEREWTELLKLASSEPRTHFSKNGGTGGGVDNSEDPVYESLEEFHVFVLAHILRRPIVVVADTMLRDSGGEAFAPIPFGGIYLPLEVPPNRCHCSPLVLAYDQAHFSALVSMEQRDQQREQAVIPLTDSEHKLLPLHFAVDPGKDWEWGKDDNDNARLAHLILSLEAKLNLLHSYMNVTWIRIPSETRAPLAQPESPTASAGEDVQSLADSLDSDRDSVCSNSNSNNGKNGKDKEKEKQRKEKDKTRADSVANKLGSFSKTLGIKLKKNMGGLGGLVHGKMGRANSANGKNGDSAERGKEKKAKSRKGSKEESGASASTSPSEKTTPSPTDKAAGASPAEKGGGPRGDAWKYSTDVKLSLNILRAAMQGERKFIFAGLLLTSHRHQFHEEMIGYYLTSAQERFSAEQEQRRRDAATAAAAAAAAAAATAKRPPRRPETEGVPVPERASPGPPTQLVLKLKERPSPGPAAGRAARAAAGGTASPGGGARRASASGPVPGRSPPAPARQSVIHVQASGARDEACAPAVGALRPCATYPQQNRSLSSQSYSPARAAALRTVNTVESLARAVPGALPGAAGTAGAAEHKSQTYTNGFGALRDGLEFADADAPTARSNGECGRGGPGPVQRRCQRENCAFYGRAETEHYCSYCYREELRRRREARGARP
- protocol_summary: log2 ratio of Biotin-Ahx-Ub-VS probe labelling (fragment/DMSO); higher = less target engagement (more negative = stronger competition), active = hit call of the paper (q ≤ 0.05, log2 ratio ≤ -1)
- test_conditions: compound concentration: 200 uM; treatment time: 3 h
Label scheme for log2 ratio of Biotin-Ahx-Ub-VS probe labelling: lower than -0.7 is false (0), -0.7 and above is true (1).

# input Check if log2 ratio of Biotin-Ahx-Ub-VS probe labelling >= -0.7 (inclusive). Item: COc1ccc(Cl)cc1NC(=O)CCl
# output false (0)

# input Check if log2 ratio of Biotin-Ahx-Ub-VS probe labelling >= -0.7 (inclusive). Item: Cc1cccn2cc(CCNC(=O)CCl)nc12.Cl
# output true (1)

# input Check if log2 ratio of Biotin-Ahx-Ub-VS probe labelling >= -0.7 (inclusive). Item: Cc1ccccc1OCC(=O)N1CCN(C(=O)CCl)CC1
# output true (1)

# input Check if log2 ratio of Biotin-Ahx-Ub-VS probe labelling >= -0.7 (inclusive). Item: CCCn1nccc1NC(=O)CCl
# output false (0)

# input Check if log2 ratio of Biotin-Ahx-Ub-VS probe labelling >= -0.7 (inclusive). Item: C[C@@H](NC(=O)CCl)c1cccc(C#N)c1
# output false (0)

# input Check if log2 ratio of Biotin-Ahx-Ub-VS probe labelling >= -0.7 (inclusive). Item: O=C(CCl)N1CCCCCC1c1ncon1 (centres undefined)
# output true (1)

# input Check if log2 ratio of Biotin-Ahx-Ub-VS probe labelling >= -0.7 (inclusive). Item: O=C(CCl)NCC1(c2ccccc2)CC1
# output true (1)

# input Check if log2 ratio of Biotin-Ahx-Ub-VS probe labelling >= -0.7 (inclusive). Item: Cl.O=C(CCl)N1CCc2ncncc2C1
# output false (0)

# input Check if log2 ratio of Biotin-Ahx-Ub-VS probe labelling >= -0.7 (inclusive). Item: CNC(=O)Cn1cc(NC(=O)CCl)cn1
# output true (1)

# input Check if log2 ratio of Biotin-Ahx-Ub-VS probe labelling >= -0.7 (inclusive). Item: O=C(CCl)NCCc1cccc2ccccc12
# output true (1)

# input Check if log2 ratio of Biotin-Ahx-Ub-VS probe labelling >= -0.7 (inclusive). Item: Cc1ccc(C(=O)NCCNC(=O)CCl)cc1
# output true (1)

# input Check if log2 ratio of Biotin-Ahx-Ub-VS probe labelling >= -0.7 (inclusive). Item: O=C(CCl)N1CCN(c2nc3ccccc3o2)CC1
# output true (1)

# input Check if log2 ratio of Biotin-Ahx-Ub-VS probe labelling >= -0.7 (inclusive). Item: Cc1nnc(C(NC(=O)CCl)c2ccccc2)n1C (centres undefined)
# output true (1)

# input Check if log2 ratio of Biotin-Ahx-Ub-VS probe labelling >= -0.7 (inclusive). Item: O=C(CCl)Nc1cccc2ncccc12
# output false (0)

# input Check if log2 ratio of Biotin-Ahx-Ub-VS probe labelling >= -0.7 (inclusive). Item: CNC(=O)C1(NC(=O)CCl)CCCCC1
# output true (1)

# input Check if log2 ratio of Biotin-Ahx-Ub-VS probe labelling >= -0.7 (inclusive). Item: Cc1cccc(N2CCC(NC(=O)CCl)C2=O)c1 (centres undefined)
# output false (0)

# input Check if log2 ratio of Biotin-Ahx-Ub-VS probe labelling >= -0.7 (inclusive). Item: CC(=O)C1CCCCN1C(=O)CCl (centres undefined)
# output true (1)

# input Check if log2 ratio of Biotin-Ahx-Ub-VS probe labelling >= -0.7 (inclusive). Item: Cc1ccc(N2CCC(NC(=O)CCl)C2=O)cc1 (centres undefined)
# output true (1)

# input Check if log2 ratio of Biotin-Ahx-Ub-VS probe labelling >= -0.7 (inclusive). Item: CN(C)C(=O)c1ccc(CNC(=O)CCl)cc1
# output true (1)

# input Check if log2 ratio of Biotin-Ahx-Ub-VS probe labelling >= -0.7 (inclusive). Item: COc1cc(Cl)c(C)cc1NC(=O)CCl
# output true (1)

# input Check if log2 ratio of Biotin-Ahx-Ub-VS probe labelling >= -0.7 (inclusive). Item: Cc1nc(CC2CCN(C(=O)CCl)CC2)no1
# output false (0)

# input Check if log2 ratio of Biotin-Ahx-Ub-VS probe labelling >= -0.7 (inclusive). Item: CC1Cc2ccccc2N1C(=O)CCl (centres undefined)
# output true (1)

# input Check if log2 ratio of Biotin-Ahx-Ub-VS probe labelling >= -0.7 (inclusive). Item: N#Cc1ccc(CNC(=O)CCl)cc1
# output true (1)

# input Check if log2 ratio of Biotin-Ahx-Ub-VS probe labelling >= -0.7 (inclusive). Item: Cc1conc1C1CN(C(=O)CCl)C1
# output false (0)

# input Check if log2 ratio of Biotin-Ahx-Ub-VS probe labelling >= -0.7 (inclusive). Item: O=C(CCl)Nc1cc(Cl)ccc1-n1cncn1
# output false (0)

# input Check if log2 ratio of Biotin-Ahx-Ub-VS probe labelling >= -0.7 (inclusive). Item: O=C(CCl)Nc1cc2c(cc1Cl)OCCCO2
# output true (1)

# input Check if log2 ratio of Biotin-Ahx-Ub-VS probe labelling >= -0.7 (inclusive). Item: NC(=O)C(Cc1ccccc1)NC(=O)CCl (centres undefined)
# output true (1)

# input Check if log2 ratio of Biotin-Ahx-Ub-VS probe labelling >= -0.7 (inclusive). Item: CC(NC(=O)CCl)c1ccc2[nH]ncc2c1 (centres undefined)
# output false (0)

# input Check if log2 ratio of Biotin-Ahx-Ub-VS probe labelling >= -0.7 (inclusive). Item: C[C@H]1CN(C(=O)CCl)CCN1C(=O)c1cnn(C)c1.Cl
# output true (1)

# input Check if log2 ratio of Biotin-Ahx-Ub-VS probe labelling >= -0.7 (inclusive). Item: CC(NC(=O)CCl)c1noc(Cc2ccccc2)n1 (centres undefined)
# output true (1)

# input Check if log2 ratio of Biotin-Ahx-Ub-VS probe labelling >= -0.7 (inclusive). Item: O=C(CCl)NC1CCS(=O)(=O)c2ccccc21 (centres undefined)
# output false (0)

# input Check if log2 ratio of Biotin-Ahx-Ub-VS probe labelling >= -0.7 (inclusive). Item: Cl.O=C(CCl)N1CCCC(c2ncc[nH]2)C1 (centres undefined)
# output true (1)

# input Check if log2 ratio of Biotin-Ahx-Ub-VS probe labelling >= -0.7 (inclusive). Item: CN(C)S(=O)(=O)c1ccccc1CNC(=O)CCl
# output true (1)

# input Check if log2 ratio of Biotin-Ahx-Ub-VS probe labelling >= -0.7 (inclusive). Item: O=C(CCl)Nc1ccc(F)cc1Cl
# output false (0)

# input Check if log2 ratio of Biotin-Ahx-Ub-VS probe labelling >= -0.7 (inclusive). Item: O=C(CCl)Nc1cc2c(cc1Cl)OCCO2
# output false (0)

# input Check if log2 ratio of Biotin-Ahx-Ub-VS probe labelling >= -0.7 (inclusive). Item: CC(C)n1nccc1NC(=O)CCl
# output false (0)

# input Check if log2 ratio of Biotin-Ahx-Ub-VS probe labelling >= -0.7 (inclusive). Item: Cl.Cn1cnc2cc(CNC(=O)CCl)ccc21
# output true (1)

# input Check if log2 ratio of Biotin-Ahx-Ub-VS probe labelling >= -0.7 (inclusive). Item: O=C(CCl)Nc1ccc(N2CCCC2=O)cc1
# output true (1)

# input Check if log2 ratio of Biotin-Ahx-Ub-VS probe labelling >= -0.7 (inclusive). Item: O=C(CCl)Nc1ccc(F)cc1F
# output true (1)

# input Check if log2 ratio of Biotin-Ahx-Ub-VS probe labelling >= -0.7 (inclusive). Item: O=C(CCl)NCCC1=CCCCC1
# output true (1)

# input Check if log2 ratio of Biotin-Ahx-Ub-VS probe labelling >= -0.7 (inclusive). Item: N#Cc1ccccc1N1CCN(C(=O)CCl)CC1
# output false (0)
